Where do these numbers come from? They come from patent US20110059095A1.

assayed-system: T1, Peptide A (human PAR-2), N-terminal biotinylated (Human, N-terminal biotin via G4S linker)
T1 construct: also called Peptide A N-Term
T1 peptide: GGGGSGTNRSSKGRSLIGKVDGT
method: peptide ELISA
Protocol: Anti-PAR-2 antibodies were tested for their ability to bind to the PAR-2 peptides. […] Detection of bound antibodies was determined with Horse-Radish Peroxidase (HRP) conjugated anti-mouse or human IgG (Jackson Immuno Research Lab, West Grove, Pa.) and developed by standard colorimetric response using tetramethylbenzidine (TMB) substrate. Absorbance was read at OD₄₅₀ for 0.1 second.
We begin with a simple list: items and their reported OD450.
recorded-endpoint: OD450

- H2M589N (antibody, V domains shown, chimeric: human variable, mouse constant domains) VH: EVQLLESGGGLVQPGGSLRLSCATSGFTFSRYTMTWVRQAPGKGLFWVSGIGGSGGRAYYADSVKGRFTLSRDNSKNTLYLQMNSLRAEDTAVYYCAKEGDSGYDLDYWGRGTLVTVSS VL: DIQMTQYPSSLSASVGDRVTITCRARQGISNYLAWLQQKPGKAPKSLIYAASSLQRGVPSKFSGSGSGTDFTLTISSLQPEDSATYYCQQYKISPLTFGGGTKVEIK: 1 to 4 od
- H2M618N (antibody, V domains shown, chimeric: human variable, mouse constant domains) VH: EVQLLESGGGLVQPGGSLRLSCAASGFTFRSYTMTWVRQAPGKGLDWVSGITDSGAGTYYGDSVKGRFTISRDNSKNTLYLQMNSLRAEDTAVYYCVKEGDSGYDLDYWGQGTLVTVSS VL: DIQMTQSPSSLSASVGDRVTITCRASQGISTYLAWLQQKPGKAPKSLIYATSSLQSGVPSKFSGSRSGTDFTLTISSLQPEDFATYYCQQYKSSPLTFGGGTKVEIK: 1 to 4 od
- H3M620N (antibody, V domains shown, chimeric: human variable, mouse constant domains) VH: EVQLVESGGNVVRPGGSLRLSCAASGFTFDDYGMTWVRQVPGKGLEWVSGINWNGGSTDYADSVKGRFTISRDNAKNSLYLQMNSLRAEDTALYYCARDKGFYGMDVWGQGTTVTVSS VL: DIVMTQSPDSLAVSLGERATINCKSSQNPLYNSNKKKYLAWYQQKPGQPPKLVIYWASTRESGVPDRFSGSGSGTDFTLTITSLQAEDVAVYYCQQYYSTPYTFGQGTKLEIK: 0.5 to 0.99 od
- H1M619N (antibody, V domains shown, chimeric: human variable, mouse constant domains) VH: EVQLVESGGGLVQAGRSLRLSCAASGFTFDDYAMHWVRQAPGKGLEWVSGISWNSGSRGYADSVKGRFTISRDNAKNSLHLQMYSLRAEDTALYYCAKENWSFDYWGQGTLVTVSS VL: DIVMTQTPLSSPVTLGQPASISCRSSQSLVHSDGNTYLSWLQQRPGQPPRLLIYKISYRFSGVPDRFSGSGAGTDFTLKISRVATEDVGVYYCMQATQLPYTFGQGTKLEIK: 1 to 4 od
